meta.source: patent US12290565B2

Test system: activated T cells
TEST SUMMARY: Fixed-ratio combination cytotoxicity assay, ruxolitinib + 15A7H (Chou-Talalay, Calcusyn)
Assay type: cell-based, human
CONDITION DETAILS: Homo sapiens, T-cell, donor N103; RUXO + 15A7H, ratio 1.1:1; read-out: EC50RUXO Combination Treatment

- COMPOUND: "N#CC[C@H](C1CCCC1)n1cc(-c2ncnc3[nH]ccc23)cn1 [RUXO]"
  TEST TARGET: "activated T cells"
  EC50: "554 nM"

###

Test system: activated T cells
TEST SUMMARY: Fixed-ratio combination cytotoxicity assay, ruxolitinib + 15A7H (Chou-Talalay, Calcusyn)
Assay type: cell-based, human
CONDITION DETAILS: Homo sapiens, T-cell, donor N103; RUXO alone; section ratio 0.37:1; read-out: EC50RUXO Single Treatment
REPORTED METRIC: EC50

- MOLECULE: "N#CC[C@H](C1CCCC1)n1cc(-c2ncnc3[nH]ccc23)cn1"
  RESULT: "9.17 µM"
